Provenance of the data: patent US20260242478A1

TEST_TARGET: T1, Anti-PSMA Fab (SEQ ID NOs: 19, 20)
T1 construct: In the phage ELISA the Fab was biotinylated and captured on neutravidin coated plates; also called 006 PSMA Fab
ASSAY_EXPLANATION: phage ELISA; biotinylated PSMA Fab on neutravidin plate, clonal phage supernatant, anti-M13 HRP detection;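 further: wells preincubated with PSMA antigen in blocking buffer or with blocking buffer only before clonal phage were added for a short incubation, then bound phage detected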
Where no end group is shown, it is not given here.
Quick reference: Phage binding ELISA, Anti-PSMA Fab signal of the listed items.
No unit in the answer, only the number.

>  <BINDER>
GDNWCKPEWMCIGF (cysteine pairing not given here; also: displayed on phage as pIII fusion, pIII and linker sequences not given here, Clone of the Peptide-180 library) [Phage-1860]

>  <RESULT_NUMBER>
2.16

$$$$
>  <BINDER>
VDKWCTPIWMCEGF (cysteine pairing not given here; also: displayed on phage as pIII fusion, pIII and linker sequences not given here, Clone of the Peptide-180 library) [Phage-1858]

>  <RESULT_NUMBER>
2.16

$$$$
>  <BINDER>
WEKWCTPQWMCELI (cysteine pairing not given here; also: displayed on phage as pIII fusion, pIII and linker sequences not given here, Clone of the Peptide-180 library) [Phage-1854]

>  <RESULT_NUMBER>
2.17

$$$$

Moving on to the next binder.
INPUT: Suppose we examine the binder WDHWCTPAWMCEFV (cysteine pairing not given here; also: displayed on phage as pIII fusion, pIII and linker sequences not given here, Clone of the Peptide-180 library) [Phage-1852] ; what Phage binding ELISA, Anti-PSMA Fab signal value has been reported?
OUTPUT: 2.17
